- TARGET_DESC: gluthathione reductase (GR) (Homo sapiens)
- Sequence (P00390 44-522): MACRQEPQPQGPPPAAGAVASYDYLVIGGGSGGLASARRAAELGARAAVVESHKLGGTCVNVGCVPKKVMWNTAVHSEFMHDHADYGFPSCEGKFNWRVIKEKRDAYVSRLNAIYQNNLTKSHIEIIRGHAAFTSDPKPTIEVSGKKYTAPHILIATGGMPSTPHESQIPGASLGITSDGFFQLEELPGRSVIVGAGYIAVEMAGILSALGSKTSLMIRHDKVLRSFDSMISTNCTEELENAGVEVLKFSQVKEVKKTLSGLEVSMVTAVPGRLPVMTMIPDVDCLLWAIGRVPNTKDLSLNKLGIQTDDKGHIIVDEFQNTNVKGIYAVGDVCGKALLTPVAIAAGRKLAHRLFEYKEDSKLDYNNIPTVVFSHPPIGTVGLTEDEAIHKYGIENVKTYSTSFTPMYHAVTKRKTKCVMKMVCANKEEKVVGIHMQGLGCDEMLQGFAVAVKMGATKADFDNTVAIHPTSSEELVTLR
- MEASUREMENT_DESCRIPTION: Inhibition of recombinant GR (GSSG assay)
- Assay type: biochemical
- MEASUREMENT_SETUP: Biological Example 4; assays of Biological Example 1
- Method: Small molecule inhibition of recombinant thioredoxin reductase 1 (TrxR1) and gluthathione reductase (GR) was examined in 96-well plate format. […] Percent activity was determined using DMSO vehicle and no TrxR1 (blank) controls. […] Percent activity was determined using DMSO vehicle and no GR (blank) controls.
Where a name gives a salt, the structure may show the parent alone.
REPORTED_ENDPOINT: IC50

MOLECULE	IC50
Cc1cccc(CN2[C@@H]3C(=O)C=C[C@H]2[C@@H]2C(=O)N(c4ccccc4O)C(=O)[C@@H]23)c1 (relative stereo)	> 100 µM
O=C1C=C[C@H]2[C@@H]3C(=O)N(c4ccccc4)C(=O)[C@@H]3[C@@H]1N2CCc1ccccc1 (relative stereo)	> 100 µM
O=C1C=CC2C3C(=O)N(c4ccccc4)C(=O)C3C1N2Cc1ccc(Br)cc1 (stereo not shown) [Example 6, Trifluoroacetate]	31.3 µM
O=C1C=CC2C3C(=O)N(c4ccccc4)C(=O)C3C1N2Cc1cccc(Cl)c1 (stereo not shown) [Example 41]	49.5 µM
N#Cc1cccc(CN2C3C=CC(=O)C2C2C(=O)N(c4ccccc4)C(=O)C23)c1 (stereo not shown) [Example 36, Trifluoroacetate]	68.5 µM
O=C1C=C[C@H]2[C@@H]3C(=O)N(C4CCCCC4)C(=O)[C@@H]3[C@@H]1N2Cc1ccccc1 (relative stereo)	> 100 µM
CC(C)(C)N1C(=O)[C@@H]2[C@H](C1=O)[C@H]1C(=O)C=C[C@@H]2N1Cc1ccccc1 (relative stereo)	> 100 µM
CC1=CC(=O)C2C3C(=O)N(c4ccccc4)C(=O)C3C1N2Cc1ccccc1 (stereo not shown) [Example 12, Trifluoroacetate]	41.4 µM

Task: Entry O=C1C=CC2C3C(=O)N(c4ccccc4)C(=O)C3C1N2Cc1cccc(F)c1F (stereo not shown) , system gluthathione reductase (GR) (Homo sapiens): what IC50 was measured?
Result: > 100 µM

Task: Also, CCN1C(=O)[C@@H]2[C@H](C1=O)[C@H]1C(=O)C=C[C@@H]2N1C (relative stereo) please.
Result: > 100 µM

Task: How about Cc1ccc(F)c(CN2C3C=CC(=O)C2C2C(=O)N(c4ccccc4)C(=O)C23)c1F (stereo not shown) [Example 39] ?
Result: > 100 µM

Task: Check Cc1cc(CN2C3C=CC(=O)C2C2C(=O)N(c4ccccc4)C(=O)C23)ccc1F (stereo not shown) too.
Result: > 100 µM

Task: For CN1[C@@H]2C(=O)C=C[C@H]1[C@@H]1C(=O)N(c3ccccc3)C(=O)[C@@H]12 (relative stereo) then?
Result: 23 µM

---

- TARGET_DESC: recombinant thioredoxin reductase 1 (TrxR1) (Homo sapiens, UniProt Q16881)
- Sequence (Q16881 1-649): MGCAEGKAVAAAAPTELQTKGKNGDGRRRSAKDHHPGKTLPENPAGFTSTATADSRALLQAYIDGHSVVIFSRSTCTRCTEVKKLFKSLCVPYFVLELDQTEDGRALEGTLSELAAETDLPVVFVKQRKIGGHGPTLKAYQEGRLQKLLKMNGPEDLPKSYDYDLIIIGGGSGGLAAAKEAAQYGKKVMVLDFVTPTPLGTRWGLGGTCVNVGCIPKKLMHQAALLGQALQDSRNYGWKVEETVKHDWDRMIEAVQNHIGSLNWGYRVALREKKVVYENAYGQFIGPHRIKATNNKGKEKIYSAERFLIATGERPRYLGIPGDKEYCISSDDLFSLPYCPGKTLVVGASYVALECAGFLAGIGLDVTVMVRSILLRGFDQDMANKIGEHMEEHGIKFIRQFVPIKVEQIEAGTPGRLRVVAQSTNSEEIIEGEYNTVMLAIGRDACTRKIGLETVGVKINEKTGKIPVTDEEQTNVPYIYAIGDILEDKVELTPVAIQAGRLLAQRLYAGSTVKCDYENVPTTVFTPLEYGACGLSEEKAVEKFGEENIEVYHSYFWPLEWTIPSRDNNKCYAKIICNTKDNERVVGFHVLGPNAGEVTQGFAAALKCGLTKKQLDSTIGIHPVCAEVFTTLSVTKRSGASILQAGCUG
- MEASUREMENT_DESCRIPTION: Inhibition of recombinant TrxR1 (DTNB assay)
- Format: biochemical
- MEASUREMENT_SETUP: Biological Example 4; assays of Biological Example 1; read-out: TrxR Inhibition
Structures can show the parent of a compound that is named as a salt.
REPORTED_ENDPOINT: pIC50
Scale note: pIC50 = -log10(concentration in M).

Examples with answers:
MOLECULE	pIC50
O=C1C=CC2C3C(=O)N(c4ccccc4)C(=O)C3C1N2Cc1cccc(C(F)(F)F)c1F (centres unmarked)	5.63
N#Cc1cccc(CN2C3C=CC(=O)C2C2C(=O)N(c4ccccc4)C(=O)C23)c1 (centres unmarked) [Example 36, Trifluoroacetate]	5.83
Cc1cccc(CN2[C@@H]3C(=O)C=C[C@H]2C2C(=O)N(C)C(=O)C23)c1 (some centres unmarked)	5.74
CN1C(=O)C2C(C1=O)[C@@H]1C=CC(=O)[C@H]2N1Cc1ccccc1 (mixture of isomers)	5.51

Task: GET /values?readout=pIC50&item= CC(C)(C)N1C(=O)[C@@H]2[C@H](C1=O)[C@H]1C(=O)C=C[C@@H]2N1Cc1ccccc1 (relative stereo)
Result: 5.79
